Test: Metabolic stability in rat liver microsomes assessed as parent compound remaining measured at 10 mins
Format: ADME, microsome
Conditions: liver microsomes, read-out: Stability
// reported remaining at 10 min for each item listed
Lab book: enter the figure in %, no units written.

Name the recorded remaining at 10 min for Cc1snc(-c2ccc(Cl)cc2)c1COc1ccc(CCC(=O)O)c(C)c1C .
57

Turning now to a further compound:
Name the recorded remaining at 10 min for Cc1c(CCC(=O)O)ccc(OCc2csnc2-c2ccc(Cl)cc2)c1C .
71

----------
Experiment: Protein binding in rat plasma
Type: ADME, cell-free
Settings: read-out: PPB (converted)
MEASURED ENDPOINT: fraction unbound
Please respond with just the number, no unit label.

Name the recorded fraction unbound for O=C(O)CCc1cc(F)c(OCc2c(-c3ccc(Cl)cc3F)nsc2C(F)(F)F)c(F)c1 .
0.0019

These data points were gathered from ChEMBL document CHEMBL4130453.
